target: Serotonin 3 (5-HT3) receptor (Rattus norvegicus) (UniProt P35563+Q9JJ16); test: Dose required to stimulate cardiac 5-HT3 receptors evaluated by using von Bezold-Jarisch reflex test in urethane-anesthetized rats after intravenous administration; format: functional, organism-based
Could you please mark satisfied for values of ID50 below 0.1 mg/kg and not satisfied for values at or above it?

>>> class_assignment("CCCN1CCN(c2nc3cccc(F)c3n3cccc23)CC1")
"not satisfied"
>>> class_assignment("C=CCN1CCN(c2nc3cccc(F)c3n3cccc23)CC1")
"satisfied"
>>> class_assignment("CCCN1CCN(c2nc3ccccc3n3cccc23)CC1")
"not satisfied"
>>> class_assignment("C=CCN1CCN(c2nc3ccccc3n3cccc23)CC1")
"not satisfied"
>>> class_assignment("Fc1ccc2c(c1)nc(N1CCNCC1)c1cccn12")
"satisfied"

Given CN1CCN(c2nc3cccc(F)c3n3cccc23)CC1 , is recorded ID50 strictly lower than 0.1 mg/kg? not satisfied

Determine if CN1CCN(c2nc3c(F)cccc3n3cccc23)CC1 shows ID50 strictly lower than 0.1 mg/kg. not satisfied

Item CN1CCN(c2cnc3ccccc3n2)CC1 : ID50 beneath 0.1 mg/kg, strictly? satisfied

Hello, I'm reviewing records and need to know if ID50 of CCCN1CCN(c2nc3cc(F)ccc3n3cccc23)CC1 is below 0.1 mg/kg. Could you check? not satisfied

Threshold test, ID50 < 0.1 mg/kg: Fc1cccc2nc(N3CCNCC3)c3cccn3c12 satisfied

* * *

Target: 5-hydroxytryptamine receptor 2C (Rattus norvegicus)
Sequence (P08909 whole entry): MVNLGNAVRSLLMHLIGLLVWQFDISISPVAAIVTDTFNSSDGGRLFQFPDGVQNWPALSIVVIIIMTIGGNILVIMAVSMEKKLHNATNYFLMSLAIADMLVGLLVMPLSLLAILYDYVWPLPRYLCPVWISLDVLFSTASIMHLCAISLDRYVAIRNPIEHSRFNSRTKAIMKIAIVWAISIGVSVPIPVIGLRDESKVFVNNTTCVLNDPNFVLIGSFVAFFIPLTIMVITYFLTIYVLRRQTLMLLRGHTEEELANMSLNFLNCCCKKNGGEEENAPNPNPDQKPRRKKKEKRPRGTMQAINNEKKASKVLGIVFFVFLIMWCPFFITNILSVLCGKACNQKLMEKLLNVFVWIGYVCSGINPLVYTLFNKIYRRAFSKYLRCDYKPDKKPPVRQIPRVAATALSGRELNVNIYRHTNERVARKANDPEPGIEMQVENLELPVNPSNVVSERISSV
Assay: Inhibition of radiolabeled [3H]mesulergine ligand binding to 5-hydroxytryptamine 2C receptor
endpoint label: IC50 (nM)
One number for each entry, in nM.

Answered cases to consult:
>>> reported_value("Fc1cccc2nc(N3CCNCC3)c3cccn3c12")
784
>>> reported_value("CN1CCN(c2nc3ccccc3n3cccc23)CC1")
780
>>> reported_value("c1ccc2nc(N3CCNCC3)ccc2c1 [QUIPAZINE]")
470
>>> reported_value("CN1CCN(c2nc3cc(F)ccc3n3cccc23)CC1")
413

The record that follows has no IC50 shown yet.
Please report the recorded IC50 for Fc1ccc2c(c1)nc(N1CCNCC1)c1cccn12 . 2800

* * *

I'd appreciate it if you could supply EC50 values for the items below.
system: NG108-15; assay: Effective concentration for uptake of [14C]guanidinium on NG108-15 cells; format: functional, cell-based; settings: Murinae
Numbers only, in nM.

Use the examples below as a reference point.
>>> reported_value("CN1CCN(c2nc3cccc(F)c3n3cccc23)CC1")
6.5
>>> reported_value("C=CCN1CCN(c2nc3ccccc3n3cccc23)CC1")
8.2
>>> reported_value("CN1CCN(c2nc3ccccc3n3cccc23)CC1")
10
>>> reported_value("CCCN1CCN(c2nc3ccccc3n3cccc23)CC1")
8.5

// next entry
// lookup EC50 for CCN1CCN(c2nc3ccccc3n3cccc23)CC1 8
